System: OVCAR-4 ovarian
method_notes: NCI tumour cell line growth inhibition, 48 h
measurement_type: TGI

CN1C/C(=C\C=C\c2ccccc2)C(=O)/C(=C/C=C/c2ccccc2)C1 = > 100 µM
CC1=NN(c2nc(N)nc(CF)n2)C(C)(C)C1 = > 100 µM
Cc1ccc(NC(=O)CSC(N)=O)cc1C = > 100 µM
CC(C)(C)OC(=O)NCC(=O)N1CCN(C(=O)CNC(=O)OC(C)(C)C)CC1 = > 100 µM

Quick batch: TGI for everything below.
1. Cc1ccc(Sc2cc3c(oc2=O)-c2ccccc2OC3O)cc1 (stereo unspecified)
2. O=c1oc2ccccc2c(O)c1C(C/C(CCN1CCCC1)=N\Nc1ccccc1)c1ccccc1 (stereo unspecified)
3. CC(=C/c1ccccc1)/C=C1/NC(=S)N(/C=C2\C(=O)Oc3ccccc3C2=O)C1=O
4. O=C(O)/C(=C\c1ccncc1)c1cccc2ccccc12
5. C=C1C(=O)O[C@H]2[C@H]1CC/C(COC(=O)NCc1ccc(Cn3c(=O)sn(-c4ccccc4)c3=O)cc1)=C\CC[C@@]1(C)O[C@@H]21

["> 100 µM", "> 100 µM", "> 100 µM", "> 100 µM", "8.19 µM"]

Working through the 2 molecules below one at a time, give TGI for each.
1. Oc1cc(Br)cc2cc(Cl)cnc12
2. CS(=O)(=O)N(c1cc(-c2ccc3ncnc(Nc4cccc(Cl)c4)c3c2)cnc1Cl)S(C)(=O)=O

1: 12.8 µM; 2: 10.4 µM

---

Exercise: state measured TGI for each of the compounds provided.
Test system: SK-MEL-2 melanoma
method_notes: NCI tumour cell line growth inhibition, 48 h
One number for each entry, in µM.

These solved cases illustrate the format of a correct answer.
COc1ccc(C(=O)/C=C/c2cc(O)c(O)cc2F)c(OC)c1 = 18.3
CC(=O)[O-].O=C([CH-]C(=O)c1ccccc1)c1ccccc1.O=C([CH-]C(=O)c1ccccc1)c1ccccc1.[Sm+3] = 6.93
CC(=O)c1nc2ccccc2n1CC(=O)c1cccc(Cl)c1 = 98

Here's the next entry for you.
Any idea what its TGI is? The compound is `CN(Cc1cc(Cl)c(Cl)cc1NC(=O)CN)[C@H]1CCCC[C@@H]1N1CCCC1`
31.9

---

Tested on: SW-620 colon
method_notes: NCI tumour cell line growth inhibition, 48 h
Can you tell me TGI for the items I'm about to list?

# example entries with known answers
O=C(O)CCC(NC(=O)c1ccc(Nc2nc3cc(C(F)(F)F)ccc3nc2C(=O)O)cc1)C(=O)O (stereo not drawn) = > 100 µM
CC(C)(C)CC(C)(C)c1ccc(O)c(C[N+](C)(C)[O-])c1 = > 100 µM
CC(=O)c1nc2ccccc2n1CC(=O)c1cccc(Cl)c1 = > 100 µM

Look up TGI for the entries below, preserving their order.
1. N.N.O=P([O-])([O-])C1(P(=O)([O-])[O-])CCCCCN1.[Pt+2]
2. Cc1c([N+](=O)[O-])oc2ccc3ccccc3c12
3. Nc1ncc(-c2cccc(S(N)(=O)=O)c2)c2scc(-c3ccc(F)c(Cl)c3)c12
4. Oc1ccc(Cl)cc1C1=NC(/N=C\c2ccccc2)=NC(c2ccccc2)C1 (stereo not drawn)

["> 100 µM", "> 100 µM", "14.3 µM", "> 100 µM"]

Hey, can you go through the list below and give me TGI for every item?
1. CC(=O)[CH-]C(C)=O.CC(=O)[CH-]C(C)=O.CC[O-].CC[O-].[Ti+4]
2. NC1CC=C(COC(=O)C(O)(c2ccccc2)C2CC2)CC1 (stereo not drawn)
3. COc1ccc(C2=NN=C3C(c4ccccc4)=Nc4ccccc4N3C2)cc1
4. CCCCCCCCCCC(C)CCCCCCC(=O)O (stereo not drawn)
5. N#CCC(=O)N1CCCCCCC1
6. CC#Cc1nc(Nc2cc(C)[nH]n2)c2ccccc2n1
7. O=C1C(Cl)=C(Nc2cccc(O)c2)C(=O)N1Cc1ccc(Cl)cc1Cl

["> 100 µM", "> 100 µM", "> 100 µM", "> 100 µM", "21.3 µM", "32.4 µM", "15.7 µM"]

Hi team, please reply with TGI for each item in this list.
1. C[N+](C)(CCNC(=O)c1cccc2cc3ccccc3nc12)Cc1ccc([N+](=O)[O-])s1
2. CCN(c1cc(C#CCN2CCOCC2)cc(C(=O)NCc2c(C)cc(C)[nH]c2=O)c1C)C1CCC(N(C)CCOC)CC1 (stereo not drawn)
3. CCN(CC)CCNC(=O)c1cccc2nc3ccccc3nc12
4. CN(C)/N=N/c1nc[nH]c1C(N)=O
5. Cc1ccc([N+](=O)[O-])c2c(NCC(O)CO)ccnc12 (stereo not drawn)
6. Cn1c(O)c(C=Nc2ccccc2Cl)c(=O)n(C)c1=O
7. COc1ccc(Nc2nc(N)c(C(=O)c3cccs3)s2)cc1
8. N#CC(C#N)=C1C(=O)NC(N)=C1C#N

1: > 25 µM; 2: > 100 µM; 3: > 47.1 µM; 4: > 1000 µM; 5: > 100 µM; 6: > 100 µM; 7: > 100 µM; 8: > 100 µM

Consider the following items and state reported TGI for each.
1. CC(C)(C)c1ccc(NS(=O)(=O)c2ccc3nc(NC(=O)c4cnccn4)[nH]c3c2)cc1
2. O=NN(CCCl)C(=O)NC1CCC(CC2CCC(NC(=O)N(CCCl)N=O)CC2)CC1 (stereo not drawn)
3. O=C(/C=C\c1cccc2ccccc12)c1cccc2ccccc12
4. CCN(CC)CC(=N)N(CC)c1ccccc1
5. CC(C)=CCCC(C)C1=C(O)C(=O)C(C)=CC1=O (stereo not drawn)
6. O=C(O)/C(=C\c1ccncc1)c1cccc2ccccc12
7. O=C1OCC2=C1C(c1ccccc1)c1cc3c(cc1N2CCO)OCCO3 (stereo not drawn)
8. C=C(c1ccccc1)c1ccccc1-c1cc(-c2ccccc2)cc(-c2ccccc2)n1

["14.4 µM", "> 51.3 µM", "10.6 µM", "> 100 µM", "> 50.4 µM", "> 100 µM", "> 50 µM", "> 100 µM"]

Below is a list of compounds. For each, state its recorded TGI.
1. CCCCNC(=O)/N=C/c1c(O)c2ccccc2oc1=O
2. COc1cc(-c2csc(NC(=O)Nc3cc(Cl)cc(Cl)c3)n2)cc(OC)c1OC

1: > 100 µM; 2: 4.02 µM

Please look at the items below and tell me TGI for each one, in order.
1. CS(=O)(=O)N(c1cc(-c2ccc3ncnc(Nc4cccc(Cl)c4)c3c2)cnc1Cl)S(C)(=O)=O
2. O=Nc1c(-c2c(O)[nH]c3ccc(Br)cc23)[nH]c2ccccc12
3. N#CC1C=Cc2c(ccc3ccccc23)N1C(=O)c1ccccc1 (stereo not drawn)
4. C/C=C(/C)C(=O)O[C@H]1[C@H](O)CC(c2ccc3c(c2O)C(O)=C2C(=O)C4(OC)C(O)=C(C(N)=O)C(=O)[C@H](CC(=O)c5ccccc5O)C4CC2[C@@]3(C)OC)O[C@@H]1C (stereo partly drawn)
5. COC(=O)c1nn(C(=N)c2ccc(Cl)cc2)c2c1CCC2
6. COc1ccc2c(c1)OC[C@@H]1c3cc(O)c(OCc4ccccc4)cc3O[C@H]21
7. CC(=O)c1c2n(n(-c3ccccc3)c1=O)C(=O)c1nccnc1-2
8. O=c1oc2ccccc2c(O)c1C(C/C(CCN1CCCC1)=N\Nc1ccccc1)c1ccccc1 (stereo not drawn)

1. 13.4 µM
2. 9.41 µM
3. > 75.2 µM
4. 1.13 µM
5. > 100 µM
6. 96.2 µM
7. > 100 µM
8. > 100 µM

Need TGI for each of these compounds.
1. C=CCn1c(-c2ccc([N+](=O)[O-])cc2)csc1=N
2. Cc1cc(S(=O)(=O)/N=C(/NN)NNc2cccc(C(F)(F)F)n2)c(S)cc1Cl
3. O=[N+]([O-])c1cccc2nccc(NCCCO)c12

> 100 µM
39.3 µM
27.6 µM

---

System: NCI-H23 lung
method_notes: NCI tumour cell line growth inhibition, 48 h
Assign log10 of TGI to each entry below.
Values reflect log10 of reported TGI (µM).

Solved cases below.
COc1ccc2c(c1)OC[C@@H]1c3cc(O)c(OCc4ccccc4)cc3O[C@H]21 = 1.83
OC(CC(O)(C(F)(F)F)C(F)(F)F)c1ccc(C(O)CC(O)(C(F)(F)F)C(F)(F)F)cc1 (centres undefined) = 1.43
CCCCCCCCCCCCCCCC1=NC(C)(C)CN1C(C)C = 0.45
COc1c(B(O)O)cc(F)cc1-c1nc2ccc3[nH]ncc3c2c2c1CCCC2 = 0.88
O=C(CSc1nc2ccccc2c(=O)n1-c1ccccc1)N=Nc1c(O)[nH]c2ccc(F)cc12 = 0.96

Kindly review the next compound as well.
Requested read-out: log10 of TGI. Entry: `COC(=O)C1=C(C(=O)OC)SC2(S1)C(C(=O)OC)=C(C(=O)OC)Sc1c2ssc1=NC(C)(C)C`
0.82
